tested on: Escherichia coli TOP10; test: shrunken log2 fold change of peptide-encoding DNA abundance (4.5 h post-induction vs induction); higher = less antimicrobial activity (less host growth inhibition); conditions: time post-induction: 4.5 h; library: site-saturation at positions 5, 18, 19, 20;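 also: peptides expressed intracellularly from a pBAD plasmid library in pooled LB shake-flask culture, induced with 0.3% L-arabinose, DNA abundance read by NGS, three biological replicates, DESeq2 with apeglm shrinkage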
Attribute measured: shrunken log2 fold change

// shrunken log2 fold change lookup, sequence = "RRIRYRPPRLPRPRPRPRTFPRP" , result: -0.757

// shrunken log2 fold change lookup, sequence = "RRIRARPPRLPRPRPRPCLMPRP" , result: -0.0504

// shrunken log2 fold change lookup, sequence = "RRIRCRPPRLPRPRPRPEECPRP" , result: -0.0128

// shrunken log2 fold change lookup, sequence = "RRIRLRPPRLPRPRPRPKWVPRP" , result: -0.25

// shrunken log2 fold change lookup, sequence = "RRIRYRPPRLPRPRPRPIRLPRP" , result: 0.0224

// shrunken log2 fold change lookup, sequence = "RRIRHRPPRLPRPRPRPMGDPRP" , result: -0.0774

// shrunken log2 fold change lookup, sequence = "RRIRERPPRLPRPRPRPPMLPRP" , result: 1.29

// shrunken log2 fold change lookup, sequence = "RRIRKRPPRLPRPRPRPHPWPRP" , result: 0.353

// shrunken log2 fold change lookup, sequence = "RRIRLRPPRLPRPRPRPWYNPRP" , result: 0.111

// shrunken log2 fold change lookup, sequence = "RRIRHRPPRLPRPRPRPDCKPRP" , result: -0.148

// shrunken log2 fold change lookup, sequence = "RRIRYRPPRLPRPRPRPKTAPRP" , result: -0.0087

// shrunken log2 fold change lookup, sequence = "RRIRERPPRLPRPRPRPGNLPRP" , result: -0.17

// shrunken log2 fold change lookup, sequence = "RRIRIRPPRLPRPRPRPAQRPRP" , result: 0.0422

// shrunken log2 fold change lookup, sequence = "RRIRMRPPRLPRPRPRPVNFPRP" , result: -0.114

// shrunken log2 fold change lookup, sequence = "RRIRFRPPRLPRPRPRPTVMPRP" , result: -0.0812
